Test system: HepG2 (human liver cancer)
Test: MTT cytotoxicity assay
Assay type: cell-based
Conditions: Homo sapiens, HepG2, 72 h, mean SD
Readout Name: pIC50
Formally, pIC50 is defined as -log10 of the concentration c, with c in mol/L.

Indicate the recorded pIC50 value for this compound: `Cc1ccc(C(C)C)c(OC(=O)CCCCCOC(=O)c2cn(C3CC3)c3cc(N4CCN(CCCCCC(=O)Oc5cc(C)ccc5C(C)C)CC4)c(F)cc3c2=O)c1` 4.38

Indicate the recorded pIC50 value for this compound: `CC(C)[C@@H]1CC[C@@H](C)C[C@H]1OC(=O)CCCCCOC(=O)c1cn(C2CC2)c2cc(N3CCN(CCCCCC(=O)O[C@@H]4C[C@H](C)CC[C@H]4C(C)C)CC3)c(F)cc2c1=O` 4.52

Indicate the recorded pIC50 value for this compound: `Cc1ccc(C(C)C)c(OC(=O)CCN2CCN(c3cc4c(cc3F)c(=O)c(C(=O)O)cn4C3CC3)CC2)c1` 4.29

###

Test system: S. aureus ATCC 25923
Assay: MIC, broth microdilution, standard strain
Format: cell-based, Staphylococcus aureus
Conditions: Staphylococcus aureus, ATCC25923, 19 h, 35 °C
Readout Name: MIC
Please append the unit to your numeric answer.

Indicate the recorded MIC value for this compound: `CC(C)[C@@H]1CC[C@@H](C)C[C@H]1OC(=O)CCCCN1CCN(c2cc3c(cc2F)c(=O)c(C(=O)O)cn3C2CC2)CC1` 8 µg/mL

Indicate the recorded MIC value for this compound: `Cc1ccc(C(C)C)c(OC(=O)CCCCCN2CCN(c3cc4c(cc3F)c(=O)c(C(=O)O)cn4C3CC3)CC2)c1` 1 µg/mL

Indicate the recorded MIC value for this compound: `CC(C)[C@@H]1CC[C@@H](C)C[C@H]1OCC(=O)N1CCN(c2cc3c(cc2F)c(=O)c(C(=O)O)cn3C2CC2)CC1` 4 µg/mL

Indicate the recorded MIC value for this compound: `Cc1ccc(C(C)C)c(OC(=O)CCCN2CCN(c3cc4c(cc3F)c(=O)c(C(=O)O)cn4C3CC3)CC2)c1` 0.8 µg/mL

###

Tested on: SW480 (human primary colon cancer)
Experiment: MTT cytotoxicity assay
Type: cell-based
Details: Homo sapiens, SW480, 72 h, mean SD
Answer each item with its documented IC50.
Return type: number; implicit unit µM.

Indicate the recorded IC50 value for this compound: `Cc1ccc(C(C)C)c(OCC(=O)N2CCN(c3cc4c(cc3F)c(=O)c(C(=O)O)cn4C3CC3)CC2)c1` 28.2

Indicate the recorded IC50 value for this compound: `CC(C)[C@@H]1CC[C@@H](C)C[C@H]1OC(=O)CCCCOC(=O)c1cn(C2CC2)c2cc(N3CCN(CCCCC(=O)O[C@@H]4C[C@H](C)CC[C@H]4C(C)C)CC3)c(F)cc2c1=O` 45.5

Indicate the recorded IC50 value for this compound: `CC(C)[C@@H]1CC[C@@H](C)C[C@H]1OC(=O)CCCCN1CCN(c2cc3c(cc2F)c(=O)c(C(=O)O)cn3C2CC2)CC1` 55.4

Indicate the recorded IC50 value for this compound: `CC(C)[C@@H]1CC[C@@H](C)C[C@H]1OC(=O)CCCCCOC(=O)c1cn(C2CC2)c2cc(N3CCN(CCCCCC(=O)O[C@@H]4C[C@H](C)CC[C@H]4C(C)C)CC3)c(F)cc2c1=O` 78.2

###

Answer each item with its documented MIC.
Test system: S. aureus ATCC 25923
Assay: MIC, broth microdilution, standard strain
Type: cell-based, Staphylococcus aureus
Details: Staphylococcus aureus, ATCC25923, 19 h, 35 °C
Return type: number; implicit unit µg/mL.

Indicate the recorded MIC value for this compound: `Cc1ccc(C(C)C)c(OC(=O)CCCCN2CCN(c3cc4c(cc3F)c(=O)c(C(=O)O)cn4C3CC3)CC2)c1` 4

Indicate the recorded MIC value for this compound: `CC(C)[C@@H]1CC[C@@H](C)C[C@H]1OC(=O)CCN1CCN(c2cc3c(cc2F)c(=O)c(C(=O)O)cn3C2CC2)CC1` 4

Indicate the recorded MIC value for this compound: `CC(C)[C@@H]1CC[C@@H](C)C[C@H]1OC(=O)CCCN1CCN(c2cc3c(cc2F)c(=O)c(C(=O)O)cn3C2CC2)CC1` 4

Indicate the recorded MIC value for this compound: `Cc1ccc(C(C)C)c(OC(=O)CCN2CCN(c3cc4c(cc3F)c(=O)c(C(=O)O)cn4C3CC3)CC2)c1` 4

Indicate the recorded MIC value for this compound: `CC(C)[C@@H]1CC[C@@H](C)C[C@H]1OC(=O)CN1CCN(c2cc3c(cc2F)c(=O)c(C(=O)O)cn3C2CC2)CC1` 16

###

Answer each item with its documented MIC.
System: S. epidermidis KR 4243
Assay: MIC, broth microdilution, clinical strain
Type: cell-based, Staphylococcus epidermidis
Conditions: Staphylococcus epidermidis, KR4243, 19 h, 35 °C
Return type: number; implicit unit mg/L.

Indicate the recorded MIC value for this compound: `Cc1ccc(C(C)C)c(OC(=O)CCCCCN2CCN(c3cc4c(cc3F)c(=O)c(C(=O)O)cn4C3CC3)CC2)c1` 2

Indicate the recorded MIC value for this compound: `Cc1ccc(C(C)C)c(OCC(=O)N2CCN(c3cc4c(cc3F)c(=O)c(C(=O)O)cn4C3CC3)CC2)c1` 8

Indicate the recorded MIC value for this compound: `Cc1ccc(C(C)C)c(OC(=O)CCN2CCN(c3cc4c(cc3F)c(=O)c(C(=O)O)cn4C3CC3)CC2)c1` 4

Indicate the recorded MIC value for this compound: `CC(C)[C@@H]1CC[C@@H](C)C[C@H]1OC(=O)CCCCCN1CCN(c2cc3c(cc2F)c(=O)c(C(=O)O)cn3C2CC2)CC1` 8

Indicate the recorded MIC value for this compound: `CC(C)[C@@H]1CC[C@@H](C)C[C@H]1OCC(=O)N1CCN(c2cc3c(cc2F)c(=O)c(C(=O)O)cn3C2CC2)CC1` 8

Indicate the recorded MIC value for this compound: `CC(C)[C@@H]1CC[C@@H](C)C[C@H]1OC(=O)CCCN1CCN(c2cc3c(cc2F)c(=O)c(C(=O)O)cn3C2CC2)CC1` 4

Indicate the recorded MIC value for this compound: `Cc1ccc(C(C)C)c(OC(=O)CCCCN2CCN(c3cc4c(cc3F)c(=O)c(C(=O)O)cn4C3CC3)CC2)c1` 2

Indicate the recorded MIC value for this compound: `CC(C)[C@@H]1CC[C@@H](C)C[C@H]1OC(=O)CN1CCN(c2cc3c(cc2F)c(=O)c(C(=O)O)cn3C2CC2)CC1` 16

Indicate the recorded MIC value for this compound: `Cc1ccc(C(C)C)c(OC(=O)CCCN2CCN(c3cc4c(cc3F)c(=O)c(C(=O)O)cn4C3CC3)CC2)c1` 2

Indicate the recorded MIC value for this compound: `CC(C)[C@@H]1CC[C@@H](C)C[C@H]1OC(=O)CCCCN1CCN(c2cc3c(cc2F)c(=O)c(C(=O)O)cn3C2CC2)CC1` 4

Indicate the recorded MIC value for this compound: `CC(C)[C@@H]1CC[C@@H](C)C[C@H]1OC(=O)CCN1CCN(c2cc3c(cc2F)c(=O)c(C(=O)O)cn3C2CC2)CC1` 4

###

Test system: P. aeruginosa ATCC 15442
Experiment: MIC, broth microdilution, standard strain
Format: cell-based, Pseudomonas aeruginosa
Settings: Pseudomonas aeruginosa, ATCC15442, 19 h, 35 °C
Readout Name: MIC (µg/mL)
Return type: number; implicit unit µg/mL.

Indicate the recorded MIC value for this compound: `Cc1ccc(C(C)C)c(OC(=O)CCN2CCN(c3cc4c(cc3F)c(=O)c(C(=O)O)cn4C3CC3)CC2)c1` 16

Indicate the recorded MIC value for this compound: `Cc1ccc(C(C)C)c(OCC(=O)N2CCN(c3cc4c(cc3F)c(=O)c(C(=O)O)cn4C3CC3)CC2)c1` 256

Indicate the recorded MIC value for this compound: `CC(C)[C@@H]1CC[C@@H](C)C[C@H]1OC(=O)CCN1CCN(c2cc3c(cc2F)c(=O)c(C(=O)O)cn3C2CC2)CC1` 32

Indicate the recorded MIC value for this compound: `CC(C)[C@@H]1CC[C@@H](C)C[C@H]1OC(=O)CN1CCN(c2cc3c(cc2F)c(=O)c(C(=O)O)cn3C2CC2)CC1` 128

Indicate the recorded MIC value for this compound: `CC(C)[C@@H]1CC[C@@H](C)C[C@H]1OC(=O)CCCCCN1CCN(c2cc3c(cc2F)c(=O)c(C(=O)O)cn3C2CC2)CC1` 256

Indicate the recorded MIC value for this compound: `Cc1ccc(C(C)C)c(OC(=O)CCCCCN2CCN(c3cc4c(cc3F)c(=O)c(C(=O)O)cn4C3CC3)CC2)c1` 16

###

Test system: P. aeruginosa ATCC 15442
Assay: MIC, broth microdilution, standard strain
Assay type: cell-based, Pseudomonas aeruginosa
Details: Pseudomonas aeruginosa, ATCC15442, 19 h, 35 °C
Readout Name: MIC (µg/mL)
Return type: number; implicit unit µg/mL.

Return reported MIC for target or system P. aeruginosa ATCC 15442, item `CC(C)[C@@H]1CC[C@@H](C)C[C@H]1OC(=O)CCCN1CCN(c2cc3c(cc2F)c(=O)c(C(=O)O)cn3C2CC2)CC1` . 64

Return reported MIC for target or system P. aeruginosa ATCC 15442, item `Cc1ccc(C(C)C)c(OC(=O)CCCCN2CCN(c3cc4c(cc3F)c(=O)c(C(=O)O)cn4C3CC3)CC2)c1` . 16

Return reported MIC for target or system P. aeruginosa ATCC 15442, item `Cc1ccc(C(C)C)c(OC(=O)CCCN2CCN(c3cc4c(cc3F)c(=O)c(C(=O)O)cn4C3CC3)CC2)c1` . 12.8

Return reported MIC for target or system P. aeruginosa ATCC 15442, item `CC(C)[C@@H]1CC[C@@H](C)C[C@H]1OC(=O)CCCCN1CCN(c2cc3c(cc2F)c(=O)c(C(=O)O)cn3C2CC2)CC1` . 256

Source: paper PMC9224473
